Details: 297.15 K; 101.33 kPa; Liquid; Pulse-echo method
readoutKind: speed of sound (m/s)

compound	speed of sound (m/s)
CCCCC(=O)[O-].C[NH2+]CCO [2-hydroxy-N-methylethanaminium pentanoate]	1551.9
CCC(=O)[O-].C[NH2+]CCO [2-hydroxy-N-methylethanaminium propionate]	1693
CC(C)C(=O)[O-].C[NH2+]CCO [2-hydroxy-N-methylethanaminium isobutyrate]	1614.2
CCCC(=O)[O-].C[NH2+]CCO [N-methyl-2-hydroxyethylammonium butanoate]	1617.7
C[NH2+]CCO.O=C[O-] [2-hydroxy-N-methylethanaminium formate]	1817.3

----------
Conditions: 296.15 K; 101.33 kPa; Liquid; Vibrating tube method
readoutKind: mass density (kg/m3)

molecule	uom	mass density
CC(=O)[O-].C[NH2+]CCO [N-methyl-2-hydroxyethylammonium acetate]	kg/m3	1102
CCCCC(=O)[O-].C[NH2+]CCO [2-hydroxy-N-methylethanaminium pentanoate]	kg/m3	1017.57
CC(C)C(=O)[O-].C[NH2+]CCO [2-hydroxy-N-methylethanaminium isobutyrate]	kg/m3	1044.63
C[NH2+]CCO.O=C[O-] [2-hydroxy-N-methylethanaminium formate]	kg/m3	1129.37
CCC(=O)[O-].C[NH2+]CCO [2-hydroxy-N-methylethanaminium propionate]	kg/m3	1072.54
CCCC(=O)[O-].C[NH2+]CCO [N-methyl-2-hydroxyethylammonium butanoate]	kg/m3	1040.61

----------
Conditions: 298.65 K; 101.33 kPa; Liquid; Vibrating tube method
readoutKind: mass density (kg/m3)

molecule	mass density / kg/m3
CCC(=O)[O-].C[NH2+]CCO [2-hydroxy-N-methylethanaminium propionate]	1070.95
C[NH2+]CCO.O=C[O-] [2-hydroxy-N-methylethanaminium formate]	1127.96
CC(=O)[O-].C[NH2+]CCO [N-methyl-2-hydroxyethylammonium acetate]	1100.53
CCCCC(=O)[O-].C[NH2+]CCO [2-hydroxy-N-methylethanaminium pentanoate]	1015.86
CCCC(=O)[O-].C[NH2+]CCO [N-methyl-2-hydroxyethylammonium butanoate]	1038.9
CC(C)C(=O)[O-].C[NH2+]CCO [2-hydroxy-N-methylethanaminium isobutyrate]	1043.05

----------
Conditions: 325.9 K; 101.33 kPa; Liquid; Vibrating tube method
readoutKind: mass density (kg/m3)

compound	mass density (kg/m3)
CC(C)C(=O)[O-].C[NH2+]CCO [2-hydroxy-N-methylethanaminium isobutyrate]	1025.19
CCC(=O)[O-].C[NH2+]CCO [2-hydroxy-N-methylethanaminium propionate]	1052.96
CC(=O)[O-].C[NH2+]CCO [N-methyl-2-hydroxyethylammonium acetate]	1083.9
C[NH2+]CCO.O=C[O-] [2-hydroxy-N-methylethanaminium formate]	1112.83
CCCCC(=O)[O-].C[NH2+]CCO [2-hydroxy-N-methylethanaminium pentanoate]	997.325
CCCC(=O)[O-].C[NH2+]CCO [N-methyl-2-hydroxyethylammonium butanoate]	1020.35

----------
Settings: 297.15 K; 101.33 kPa; Liquid; Vibrating tube method
readoutKind: mass density (kg/m3)

molecule	readoutKind	observedValue
CCCC(=O)[O-].C[NH2+]CCO [N-methyl-2-hydroxyethylammonium butanoate]	mass density	1039.93
CC(=O)[O-].C[NH2+]CCO [N-methyl-2-hydroxyethylammonium acetate]	mass density	1101.41
C[NH2+]CCO.O=C[O-] [2-hydroxy-N-methylethanaminium formate]	mass density	1128.8
CC(C)C(=O)[O-].C[NH2+]CCO [2-hydroxy-N-methylethanaminium isobutyrate]	mass density	1044.01
CCC(=O)[O-].C[NH2+]CCO [2-hydroxy-N-methylethanaminium propionate]	mass density	1071.9
CCCCC(=O)[O-].C[NH2+]CCO [2-hydroxy-N-methylethanaminium pentanoate]	mass density	1016.89

Data provenance: the NIST ThermoML archive (doi:10.1021/je900550v)
